Experiment: Stability of markers in solution at room temperature, followed by peak retention time on chromatography
Format: physicochemical
Details: average of the four analyses over 24 hours, room temperature
Consider the following molecules; for each one, report its Peak Retention Time, Average.
Form field (numeric): enter value without unit.

## Input Suppose we examine the molecule TV-77: 77-mer sequence-defined polypeptide molecular weight marker of Ala, Glu, Tyr, Lys, molecular weight = 8259 daltons (peptide) AKKYAKKEKAYAKKAEKAAKKAEAKAYKAAEAKKKAKAEAKKYAKAAKAEKKEYAAAEAKYKAEAAKAAAKEAAYEA ; what Peak Retention Time, Average value has been reported?
## Output 26.746

## Input Also TV-66: 66-mer sequence-defined polypeptide molecular weight marker of Ala, Glu, Tyr, Lys, molecular weight = 7040 daltons (peptide) AKKYAKKEKAYAKAKKAEAKAAKKAKAEAKKYAKAAKAEKKEYAAAEAKYKAEAAKAAAKEAAYEA , if possible.
## Output 27.404

## Input Also TV-86: 86-mer sequence-defined polypeptide molecular weight marker of Ala, Glu, Tyr, Lys, molecular weight = 9220 daltons (peptide) AKKYAKKEKAYAKKAEKAAKKAEAKAYKAAEAKKKAKAEAKKYAKAAKAEKKEYAAAEAKYKAEAAKKAYKAEAAKAAAKEAAYEA , if possible.
## Output 26.129

## Input Also TV-109: 109-mer sequence-defined polypeptide molecular weight marker, molecular weight = 11727 daltons (peptide) AKKYAKKAEKAYAKKAKAAKEKKAYAKKEAKAYKAAEAKKKAKAEAKKYAKEAAKAKKEAYKAEAKKYAKAAKAEKKEYAAAEAKKAEAAKAYKAEAAKAAAKEAAYEA , if possible.
## Output 24.842
